The reported numbers originate from patent US20240246995A1.

- tested.on: Lipoprotein-Related Phospholipase A2 (Lp-PLA2) in Human Plasma (Homo sapiens)
- Construct: 40 μL of equally-divided and thawed mixed human plasma is pre-added
- Sequence (Q13093 22-441): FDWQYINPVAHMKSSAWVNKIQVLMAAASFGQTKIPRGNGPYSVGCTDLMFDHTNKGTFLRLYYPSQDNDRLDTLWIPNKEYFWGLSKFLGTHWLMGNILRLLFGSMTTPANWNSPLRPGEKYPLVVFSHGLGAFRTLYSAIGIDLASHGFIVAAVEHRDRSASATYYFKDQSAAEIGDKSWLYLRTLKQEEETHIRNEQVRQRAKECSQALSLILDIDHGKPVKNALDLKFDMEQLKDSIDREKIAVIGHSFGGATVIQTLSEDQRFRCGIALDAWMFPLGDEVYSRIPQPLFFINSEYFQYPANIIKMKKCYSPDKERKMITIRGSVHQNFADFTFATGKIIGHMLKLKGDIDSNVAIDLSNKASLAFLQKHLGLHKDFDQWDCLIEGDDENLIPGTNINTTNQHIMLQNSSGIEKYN
- assay.details: Determination of Lp-PLA2 in human plasma (Thio-PAF assay)
- test.parameters: mixed human plasma, 2-thio-PAF substrate, 30 minutes pre-incubation at room temperature
So basically, if IC50 comes in under 9 nM it's criterion met, and if it's 9 nM or more it's criterion not met.

Examples with answers:
- molecule: "N#Cc1cc(COc2cc3n(c(=O)n2)CC[C@]24CO[C@H](CN32)C4)ccc1Oc1cccc(C(F)(F)F)c1 [Example 5]"
  class.label: "criterion met"
- molecule: "O=c1nc(OCc2cc(F)c(Oc3cnc(C(F)(F)F)nc3)c(F)c2)cc2n1CC[C@@]13CO[C@@H](CN21)C3 [Example 27]"
  class.label: "criterion met"
- molecule: "CCC12CCCN1c1cc(OCc3ccc(Oc4cccc(C(F)(F)F)c4)c(C#N)c3)nc(=O)n1CC2 (stereo not drawn) [Example 40]"
  class.label: "criterion not met"

Problem: For the molecule O=c1nc(OCc2ccc(Oc3ccnc(C(F)(F)F)c3)c(F)c2)cc2n1CCC1CCCCN21 (stereo not drawn) [Example 42] , is IC50 under 9 nM? criterion not met

Problem: For the molecule O=c1nc(OCc2cc(F)c(Oc3ccnc(OC(F)(F)F)c3)c(F)c2)cc2n1CC[C@@]13CO[C@@H](CN21)C3 [Example 26] , is IC50 under 9 nM? criterion met

Problem: For the molecule CCC12CCCN1c1cc(OCc3cc(F)c(Oc4ccnc(C(F)(F)F)c4)c(F)c3)nc(=O)n1CC2 (stereo not drawn) [Example 38] , is IC50 under 9 nM? criterion met

Problem: For the molecule O=c1nc(OCc2cc(F)c(Oc3ccnc(C(F)(F)F)c3)c(F)c2)cc2n1CCC1COCCN21 (stereo not drawn) [Example 51] , is IC50 under 9 nM? criterion met

Problem: For the molecule O=c1nc(OCc2cc(F)c(Oc3cnc(C(F)(F)F)nc3)c(F)c2)cc2n1CCC1CCCCN21 (stereo not drawn) [Example 45] , is IC50 under 9 nM? criterion not met

Problem: For the molecule O=c1nc(OCCc2ccc(Oc3ccc(Cl)c(C(F)(F)F)c3)cc2)cc2n1CCC1CCCCN21 (stereo not drawn) [Example 46] , is IC50 under 9 nM? criterion not met

Problem: For the molecule N#Cc1cc(COc2cc3n(c(=O)n2)CCC2CCCCN32)ccc1Oc1cccc(C(F)(F)F)c1 (stereo not drawn) [Example 44] , is IC50 under 9 nM? criterion not met

Problem: For the molecule COc1c(OCc2cc(F)c(Oc3ccnc(OC(F)(F)F)c3)c(F)c2)nc(=O)n2c1N1C[C@@H]3C[C@@]1(CC2)CO3 [Example 63] , is IC50 under 9 nM? criterion met

Problem: For the molecule O=c1nc(OCc2ccc(Oc3ccnc(C(F)(F)F)c3)c(F)c2)cc2n1CC[C@]13CO[C@H](CN21)C3 [Example 1] , is IC50 under 9 nM? criterion met

Problem: For the molecule O=c1nc(OCc2cc(F)c(Oc3cnc(C(F)(F)F)nc3)c(F)c2)cc2n1CCC1COCCN21 (stereo not drawn) [Example 55] , is IC50 under 9 nM? criterion not met

Problem: For the molecule O=c1nc(OCc2cc(F)c(Oc3ccnc(C(F)(F)F)c3)c(F)c2)cc2n1CC[C@]13CO[C@H](CN21)C3 [Example 3] , is IC50 under 9 nM? criterion met
